Data origin: ChEMBL document CHEMBL1201862

- System: SK-OV-3
- PROTOCOL TEXT: NCI tumour cell line growth inhibition, 48 h
The source made the active and inactive calls. Cut-off read from the data, not from the text of the source: active = GI50 up to about 1.1 µM and inactive = higher.
Measured GI50 of individual entries
REPORTED ENDPOINT: GI50

INSERT INTO assay_data (compound, reported_endpoint, value_measured) VALUES
  ('COc1ccc2[nH]c3c(c2c1)CC(=S)N1CCCC(CC3=O)C1 (stereo not drawn)', 'GI50', '90.8 µM (inactive)'),
  ('COC(=O)[C@@H]1C(=O)O[C@@H](c2ccc(OC)c(OC)c2OC)[C@@H]1C(=O)OC.COC(=O)[C@H]1C(=O)O[C@@H](c2ccc(OC)c(OC)c2OC)[C@@H]1C(=O)OC', 'GI50', '> 100 µM (inactive)'),
  ('COc1ccc(CC(=O)N2CCC3(C)CC(=O)CC=C23)cc1OC (stereo not drawn)', 'GI50', '> 100 µM (inactive)');
